- procedureSummary: Thermal stability test (residual rate of compound (I) by HPLC)
- Format: physicochemical
- experimentalSetup: Condition (2): non-closed state, 40° C., humidity 75%; 1 week
readout: Residual rate of Compound (I) (%)

molecule	testResult
CC1=C(C(=O)OC(C)C)[C@@H](c2cccc([N+](=O)[O-])c2)C(C(=O)OC2CN(C(c3ccccc3)c3ccccc3)C2)=C(N)N1.Cl.Cl.O.O [Example 1]	97.8
CC1=C(C(=O)OC(C)C)[C@@H](c2cccc([N+](=O)[O-])c2)C(C(=O)OC2CN(C(c3ccccc3)c3ccccc3)C2)=C(N)N1.O=S(=O)(O)O [Comparative Example 2, reference compound]	8.9
CC1=C(C(=O)OC(C)C)[C@@H](c2cccc([N+](=O)[O-])c2)C(C(=O)OC2CN(C(c3ccccc3)c3ccccc3)C2)=C(N)N1.CS(=O)(=O)O.CS(=O)(=O)O [Comparative Example 3, reference compound]	0.1
Br.Br.CC1=C(C(=O)OC(C)C)[C@@H](c2cccc([N+](=O)[O-])c2)C(C(=O)OC2CN(C(c3ccccc3)c3ccccc3)C2)=C(N)N1.O.O [Example 2]	95.5
